Source listed as ChEMBL document CHEMBL4396937.

- System: Candida albicans
- assayOverview: Antifungal activity against Candida albicans MTCC 3017 assessed as reduction in fungal growth incubated for 24 hrs by agar well diffusion method
- Type: functional
- testContext: MTCC 3017, 24 h
I'd be grateful if you could share measured MIC for these entries.
Give bare numbers, in µg/mL.

Some entries whose results are on file:
COc1ccc(-c2nc3sccn3c2C(=O)c2cn(-c3ccc(Cl)cc3)nn2)cc1: 15.6
COc1ccc(-c2nc3sccn3c2C(=O)c2cn(-c3ccc(F)cc3Br)nn2)cc1: 7.8
COc1cc(-n2cc(C(=O)c3c(-c4ccccc4)nc4sccn34)nn2)cc(OC)c1OC: 15.6
Clc1ccc(COC(Cn2ccnc2)c2ccc(Cl)cc2Cl)c(Cl)c1 (stereo not given): 3.9
COc1ccc(-c2nc3sccn3c2C(=O)c2cn(-c3ccc(C(F)(F)F)cc3)nn2)cc1: 7.8

Dear colleague, could you send me MIC for each of the items below? Thanks.
1. O=C(c1cn(-c2ccc(Br)cc2)nn1)c1c(-c2ccccc2)nc2sccn12
2. COc1ccc(-c2nc3sccn3c2C(=O)c2cn(-c3ccc(F)cc3)nn2)cc1
3. O=C(c1cn(-c2ccc(Cl)cc2)nn1)c1c(-c2ccccc2)nc2sccn12
4. COc1ccc(-n2cc(C(=O)c3c(-c4ccc(Cl)cc4)nc4sccn34)nn2)cc1
5. O=C(c1cn(-c2ccc(Br)cc2)nn1)c1c(-c2ccc(Cl)cc2)nc2sccn12
6. COc1cc(-n2cc(C(=O)c3c(-c4ccc(Cl)cc4)nc4sccn34)nn2)cc(OC)c1OC

Output:
1. 7.8
2. 15.6
3. 7.8
4. 7.8
5. 7.8
6. 15.6

Dear colleague, could you send me MIC for each of the items below? Thanks.
1. O=C(c1cn(-c2ccc(C(F)(F)F)cc2)nn1)c1c(-c2ccc(Cl)cc2)nc2sccn12
2. COc1ccc(-c2nc3sccn3c2C(=O)c2cn(-c3ccc(OC)cc3)nn2)cc1
3. O=C(c1cn(-c2ccc(F)cc2)nn1)c1c(-c2ccccc2)nc2sccn12
4. O=C(c1cn(-c2ccc(Cl)cc2)nn1)c1c(-c2ccc(Cl)cc2)nc2sccn12

Output:
1. 15.6
2. 15.6
3. 15.6
4. 7.8

====

- System: Pseudomonas aeruginosa
- assayOverview: Antibacterial activity against Pseudomonas aeruginosa MTCC 2453 assessed as reduction in bacterial growth incubated for 24 hrs by agar well diffusion method
- Format: functional
- testContext: MTCC 2453, 24 h
measure: MIC

Some entries whose results are on file:
COc1ccc(-c2nc3sccn3c2C(=O)c2cn(-c3ccc(Cl)cc3)nn2)cc1: > 125 µg/mL
O=C(c1cn(-c2ccc(F)cc2Br)nn1)c1c(-c2ccc(Cl)cc2)nc2sccn12: > 125 µg/mL

Okay, now this compound:
Input: Check the records and state MIC for COc1ccc(-c2nc3sccn3c2C(=O)c2cn(-c3cc(OC)c(OC)c(OC)c3)nn2)cc1
Output: > 125 µg/mL

====

- Test system: Pseudomonas aeruginosa
- assayOverview: Antibacterial activity against Pseudomonas aeruginosa MTCC 2453 assessed as reduction in bacterial growth incubated for 24 hrs by agar well diffusion method
- Type: functional
- testContext: MTCC 2453, 24 h
measure: MIC

Some entries whose results are on file:
COc1ccc(-c2nc3sccn3c2C(=O)c2cn(-c3ccc(F)cc3Br)nn2)cc1: > 125 µg/mL
O=C(c1cn(-c2ccc(F)cc2)nn1)c1c(-c2ccccc2)nc2sccn12: > 125 µg/mL

Okay, now this molecule:
Input: Check the records and state MIC for O=C(c1cn(-c2ccc(C(F)(F)F)cc2)nn1)c1c(-c2ccc(Cl)cc2)nc2sccn12
Output: > 125 µg/mL
